The entries below are paired with their reported pIC50.
Assayed target: PD-1/PD-L1 (Homo sapiens, UniProt Q9NZQ7)
Construct: TVMV protease site linker (C)
Sequence (Q9NZQ7 18-239): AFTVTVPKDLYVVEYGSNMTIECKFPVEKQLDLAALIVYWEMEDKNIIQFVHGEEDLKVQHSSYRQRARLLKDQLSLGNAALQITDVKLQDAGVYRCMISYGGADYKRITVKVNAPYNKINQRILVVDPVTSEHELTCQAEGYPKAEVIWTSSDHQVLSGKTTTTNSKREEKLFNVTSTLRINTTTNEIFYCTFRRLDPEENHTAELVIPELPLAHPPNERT
Assay name: PD-1/PD-L1 Homogenous Time-Resolved Fluorescence (HTRF) binding assay
Details: PD-L1-His 10 nM, PD-1-Ig 20 nM
Scale note: pIC50 = -log10(concentration in M).

Lab note: need pIC50 with PD-1/PD-L1 (Homo sapiens, UniProt Q9NZQ7) for entry Cc1c(COc2cc(OCc3cncc(C#N)c3)c(CNCCc3cscn3)cc2Cl)cccc1-c1cccc(OCC2CCCN(C)C2)c1Cl (stereo not drawn) [Example 2598] , please look it up. 9.00

Lab note: need pIC50 with PD-1/PD-L1 (Homo sapiens, UniProt Q9NZQ7) for entry Cc1c(COc2cc(OCc3cncc(C#N)c3)c(CN3CCC(c4nnn[nH]4)C3)cc2Cl)cccc1-c1cccc(OCCCNC[C@H](O)CO)c1Cl (stereo partly drawn) [Example 1033] , please look it up. 8.68

Lab note: need pIC50 with PD-1/PD-L1 (Homo sapiens, UniProt Q9NZQ7) for entry Cc1c(COc2cc(OCc3cncc(C#N)c3)c(CN3CCCC3c3cn[nH]c3)cc2Cl)cccc1-c1cccc(OCC2CCCN(C)C2)c1Cl (stereo not drawn) [Example 1025] , please look it up. 9.30
